Values from patent US12221432B2

assay: Pharmacokinetics study in mice (cassette); assay type: in vivo; conditions: female, Balb/c, plasma, po; mouse cassette PK, p.o. 2 mg/kg
Structures can show the parent of a compound that is named as a salt.
Recorded Tmax, one value per entry.
reported-property: Tmax

CC/C(=C(/c1ccc(OCCNC/C=C/C(=O)N(C)C)nc1)c1[nH]c2ccccc2c1Cl)c1cccc(OC)c1 [Compound 4 monohydrochloride] = 15 min
CC/C(=C(/c1ccc(OCCNC/C=C/C(=O)N(C)C)nc1)c1[nH]c2ccccc2c1Cl)c1ccccc1 [Compound 3 monohydrochloride] = 15 min

----------
assay: Pharmacokinetics study in rats (cassette); format: in vivo; conditions: female, SD, plasma, po; rat cassette PK, p.o. 2 mg/kg
Where a name gives a salt, the structure may show the parent alone.
reported-property: half-life (h)

CC/C(=C(/c1ccc(OCCNC/C=C/C(=O)N(C)C)nc1)c1[nH]c2ccccc2c1Cl)c1cccc(OC)c1 [Compound 4 monohydrochloride] = 3.26
